SYSTEM: PSMA-expressing C4-2 cells (Homo sapiens, UniProt Q04609)
Construct: PSMA-expressing C4-2 cells (ATCC, Cat. No. CRL-3314) were cultured in RPMI-1640; host or cells: C4-2 cells
Sequence (Q04609 whole entry): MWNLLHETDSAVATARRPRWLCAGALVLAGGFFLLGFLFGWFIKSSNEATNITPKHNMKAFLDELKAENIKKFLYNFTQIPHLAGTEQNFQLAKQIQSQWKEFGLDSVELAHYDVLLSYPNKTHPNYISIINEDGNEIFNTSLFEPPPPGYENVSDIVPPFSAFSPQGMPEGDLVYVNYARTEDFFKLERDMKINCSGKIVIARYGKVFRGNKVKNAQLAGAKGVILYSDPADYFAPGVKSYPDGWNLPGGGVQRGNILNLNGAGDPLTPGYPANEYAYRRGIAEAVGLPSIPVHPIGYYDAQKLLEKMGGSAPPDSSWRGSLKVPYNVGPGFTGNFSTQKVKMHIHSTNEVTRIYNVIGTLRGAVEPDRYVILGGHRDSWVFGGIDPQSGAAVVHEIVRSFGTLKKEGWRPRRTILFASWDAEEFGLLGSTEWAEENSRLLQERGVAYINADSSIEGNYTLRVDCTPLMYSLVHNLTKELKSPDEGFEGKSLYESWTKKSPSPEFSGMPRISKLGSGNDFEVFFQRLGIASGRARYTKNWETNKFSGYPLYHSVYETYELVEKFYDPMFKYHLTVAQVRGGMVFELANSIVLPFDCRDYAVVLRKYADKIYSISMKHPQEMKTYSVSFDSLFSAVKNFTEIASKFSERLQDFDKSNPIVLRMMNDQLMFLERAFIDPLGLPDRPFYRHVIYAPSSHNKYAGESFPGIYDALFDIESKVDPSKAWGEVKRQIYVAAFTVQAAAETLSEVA
ASSAY_PROTOCOL: FACS binding assay (competition with 50 nM PSM-0183)
CONDITIONS: pIC50 category of FACS binding, C4-2 cells; read-out: pIC50 [C4-2] CAT (converted)
Numbered stars: 1 amine (or outer) side, 2 acyl side, 3 side chain; on linkers, the order of the positions; unused ones are H or OH. Bridge positions count the residues as written; N and C are the ends. Square brackets hold non-standard residues; d marks the D form. Peptide text beside a SMILES is read from it. * marks the point of attachment. X3 = O=C(O)CN1CCN(CC(=O)O)CCN(CC(=O)NCCCOCCOCCOCCCN*)CCN(CC(=O)O)CC1; DOTA = O=C(O)CN1CCN(CC(=O)O)CCN(CC(=O)*)CCN(CC(=O)O)CC1; Phe(4-Cl) = N[C@@H](Cc1ccc(Cl)cc1)C(=O)O; Ethylenediamine = C(CN[*:2])N[*:1]; NMeT = CN[C@H](C(=O)O)[C@@H](C)O; 2Pal = N[C@@H](Cc1ccccn1)C(=O)O; X1 = O=C(CC1CCN([*:1])CC1)[*:2]; Cit = NC(=O)NCCC[C@H](N)C(=O)O; Suc = O=C(CCC(=O)[*:2])[*:1]; Tle = CC(C)(C)[C@H](N)C(=O)O; Aib = CC(C)(N)C(=O)O; βAla = NCCC(=O)O
REPORTED_ENDPOINT: IC50

Query :: Please look at this compound and report its IC50: C[C@@H](O)[C@H](NC(=O)CC1CCN(C(=O)CN2CCN(CC(=O)O)CCN(CC(=O)O)CCN(CC(=O)O)CC2)CC1)C(=O)NC(C)(C)C(=O)N[C@@H](Cc1ccc(Cl)cc1)C(=O)N[C@H]1CSSC[C@@H](C(=O)N[C@H](C(=O)NCCC(N)=O)C(C)(C)C)NC(=O)[C@H](CC(N)=O)NC(=O)C(C)(C)NC(=O)[C@H](CCCNC(=N)N)NC(=O)[C@H](CCCCN)NC1=O [PSM-0467] ({DOTA}-[X1]T[Aib][Phe(4-Cl)]CKR[Aib]NC[Tle][βAla]-NH2; disulfide 5-10)
Result :: < 200 nM

Query :: Please look at this compound and report its IC50: C[C@@H](O)[C@H](NC(=O)[C@@H](NC(=O)[C@@H]1CSSC[C@H](NC(=O)[C@H](Cc2ccccn2)NC(=O)C(C)(C)NC(=O)[C@@H](NC(=O)CC2CCN(C(=O)CN3CCN(CC(=O)O)CCN(CC(=O)O)CCN(CC(=O)O)CC3)CC2)[C@@H](C)O)C(=O)N[C@@H](CCCCN)C(=O)N[C@@H](CCCNC(N)=O)C(=O)NC(C)(C)C(=O)N[C@@H](CC(N)=O)C(=O)N1)C(C)(C)C)C(N)=O [PSM-0512] ({DOTA}-[X1]T[Aib][2Pal]CK[Cit][Aib]NC[Tle]T-NH2; disulfide 5-10)
Result :: 200 to 1260 nM

Query :: Please look at this compound and report its IC50: CC(C)C[C@H](NC(=O)[C@@H]1CSSC[C@H](NC(=O)[C@H](Cc2ccccc2)NC(=O)[C@H](C)NC(=O)[C@@H](NC(=O)CCC(=O)NCCCOCCOCCOCCCNC(=O)CN2CCN(CC(=O)O)CCN(CC(=O)O)CCN(CC(=O)O)CC2)[C@@H](C)O)C(=O)N[C@@H](CCCCN)C(=O)N[C@@H](CCCNC(=N)N)C(=O)N[C@@H](C)C(=O)N[C@@H](CC(N)=O)C(=O)N1)C(N)=O [PSM-0480] ({X3-Suc}-TAFCKRANCL-NH2; disulfide 4-9)
Result :: 1260 to 3160 nM

Query :: Please look at this compound and report its IC50: CC(=O)N[C@H](C(=O)NC(C)(C)C(=O)N[C@@H](Cc1ccc(Cl)cc1)C(=O)N[C@H]1CSSC[C@@H](C(=O)N[C@H](C(=O)NCCN)C(C)(C)C)NC(=O)[C@H](CC(N)=O)NC(=O)C(C)(C)NC(=O)[C@H](CCCNC(=N)N)NC(=O)[C@H](CCCCN)NC1=O)[C@@H](C)O [PSM-0393] (Ac-T[Aib][Phe(4-Cl)]CKR[Aib]NC[Tle]-Ethylenediamine; disulfide 4-9)
Result :: < 200 nM

Query :: Please look at this compound and report its IC50: CC(C)[C@H](NC(=O)[C@@H]1CSSC[C@H](NC(=O)[C@H](Cc2ccc(Cl)cc2)NC(=O)C(C)(C)NC(=O)[C@@H](NC(=O)CC2CCN(C(=O)CN3CCN(CC(=O)O)CCN(CC(=O)O)CCN(CC(=O)O)CC3)CC2)[C@@H](C)O)C(=O)N[C@@H](CCCCN)C(=O)N[C@@H](CCCNC(=N)N)C(=O)NC(C)(C)C(=O)N[C@@H](CC(N)=O)C(=O)N1)C(=O)N(C)[C@H](C(N)=O)[C@@H](C)O [PSM-0377] ({DOTA}-[X1]T[Aib][Phe(4-Cl)]CKR[Aib]NCV[NMeT]-NH2; disulfide 5-10)
Result :: < 200 nM
